Where these numbers come from: paper PMC10107299

Subject Of Test: LecA (Pseudomonas aeruginosa)
Construct: made in house
Method: Isothermal titration microcalorimetry (ITC) with LecA
Type: binding
Condition Notes: ITC average, 25 °C, TBS/Ca2+ buffer (5% DMSO for I2 and J2), N=3
Response field label: string, one of 1 (ΔH strictly below -60 kJ/mol) or 0.

Worked set:
O=C(CCc1ccc(O[C@@H]2O[C@H](CO)[C@H](O)[C@H](O)[C@H]2O)cc1)Nc1ccc(CCc2ccc(NC(=O)CCc3ccc(O[C@@H]4O[C@H](CO)[C@H](O)[C@H](O)[C@H]4O)cc3)cc2S(=O)(=O)O)c(S(=O)(=O)O)c1 = 1
O=C(CCc1ccc(O[C@@H]2O[C@H](CO)[C@H](O)[C@H](O)[C@H]2O)cc1)Nc1ccc(OCCCOc2ccc(NC(=O)CCc3ccc(O[C@@H]4O[C@H](CO)[C@H](O)[C@H](O)[C@H]4O)cc3)cn2)nc1 = 1
Cc1ccc(NC(=O)CCc2ccc(O[C@@H]3O[C@H](CO)[C@H](O)[C@H](O)[C@H]3O)cc2)cc1S(=O)(=O)O = 0
O=C(CCc1ccc(O[C@@H]2O[C@H](CO)[C@H](O)[C@H](O)[C@H]2O)cc1)Nc1ccc(OCCCCOc2ccc(NC(=O)CCc3ccc(O[C@@H]4O[C@H](CO)[C@H](O)[C@H](O)[C@H]4O)cc3)cn2)nc1 = 0

Does the reported ΔH of the following compound sit strictly below -60 kJ/mol? `COc1ccc(NC(=O)CCc2ccc(O[C@@H]3O[C@H](CO)[C@H](O)[C@H](O)[C@H]3O)cc2)cn1`
0

----------
Method: In vitro metabolic stability, human liver microsomes
Type: in vitro ADME
Condition Notes: N=3, read-out: CLint HLM
Experimental Readout: microsomal CLint at 1 µM (µL/min/mg)
# value in µL/min/mg; strip the unit string

O=C(/C=C/c1ccc(O[C@@H]2O[C@H](CO)[C@H](O)[C@H](O)[C@H]2O)cc1)Nc1ccc(OCCOc2ccc(NC(=O)/C=C/c3ccc(O[C@@H]4O[C@H](CO)[C@H](O)[C@H](O)[C@H]4O)cc3)cn2)nc1 = 28.6

Please find the next compound below.
Fill in the blank: the reported microsomal CLint at 1 µM of O=C(CCc1ccc(O[C@@H]2O[C@H](CO)[C@H](O)[C@H](O)[C@H]2O)cc1)Nc1ccc(OCCOc2ccc(NC(=O)CCc3ccc(O[C@@H]4O[C@H](CO)[C@H](O)[C@H](O)[C@H]4O)cc3)cc2)cc1 [Compound D2] is ____.
21

----------
Subject Of Test: LecA (Pseudomonas aeruginosa, UniProt Q05097)
Construct: made in house
Sequence (Q05097 whole entry): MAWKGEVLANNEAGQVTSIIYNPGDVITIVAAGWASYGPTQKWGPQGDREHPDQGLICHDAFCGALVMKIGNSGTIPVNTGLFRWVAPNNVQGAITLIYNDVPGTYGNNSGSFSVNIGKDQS
Method: Competitive binding assay based on fluorescence polarization
Reported IC50 values are given for each entry in this list.
# value in µM; strip the unit string

Query for LecA (Pseudomonas aeruginosa, UniProt Q05097): what IC50 does the record show for `O=C(CCc1ccc(O[C@@H]2O[C@H](CO)[C@H](O)[C@H](O)[C@H]2O)cc1)Nc1ccc(OCCCCOc2ccc(NC(=O)CCc3ccc(O[C@@H]4O[C@H](CO)[C@H](O)[C@H](O)[C@H]4O)cc3)cn2)nc1` ?
3.4

----------
Reported fraction unbound at 2 h, 1 µM values are given for each entry in this list.
Method: Plasma protein binding (rapid equilibrium device), murine plasma
Type: in vitro ADME, mouse
Condition Notes: CD-1, mouse, plasma, read-out: PPB Mouse (converted)
# respond with the number and nothing more

Worked cases, fraction unbound at 2 h, 1 µM given:
O=C(/C=C/c1ccc(O[C@@H]2O[C@H](CO)[C@H](O)[C@H](O)[C@H]2O)cc1)Nc1ccc(OCCOc2ccc(NC(=O)/C=C/c3ccc(O[C@@H]4O[C@H](CO)[C@H](O)[C@H](O)[C@H]4O)cc3)cc2)cc1 [Compound D1] = 0.006
O=C(CCc1ccc(O[C@@H]2O[C@H](CO)[C@H](O)[C@H](O)[C@H]2O)cc1)Nc1ccc(CCc2ccc(NC(=O)CCc3ccc(O[C@@H]4O[C@H](CO)[C@H](O)[C@H](O)[C@H]4O)cc3)cc2S(=O)(=O)O)c(S(=O)(=O)O)c1 = 0.86

Please find the next molecule below.
Fill in the blank: the reported fraction unbound at 2 h, 1 µM of `O=C(CCc1ccc(O[C@@H]2O[C@H](CO)[C@H](O)[C@H](O)[C@H]2O)cc1)Nc1ccc(OCCOc2ccc(NC(=O)CCc3ccc(O[C@@H]4O[C@H](CO)[C@H](O)[C@H](O)[C@H]4O)cc3)cn2)nc1` is ____.
0.03

----------
Subject Of Test: LecA (Pseudomonas aeruginosa)
Construct: made in house
Method: Isothermal titration microcalorimetry (ITC) with LecA
Assay type: binding
Condition Notes: ITC average, 25 °C, N=3
Response field label: string, one of Fulfilled (N (stoichiometry) strictly below 0.5) or Not fulfilled.

COc1ccc(NC(=O)CCc2ccc(O[C@@H]3O[C@H](CO)[C@H](O)[C@H](O)[C@H]3O)cc2)cn1 [Compound G2] = Not fulfilled

Does the reported N (stoichiometry) of the following compound sit strictly below 0.5? O=C(CCc1ccc(O[C@@H]2O[C@H](CO)[C@H](O)[C@H](O)[C@H]2O)cc1)Nc1ccc(OCCCOc2ccc(NC(=O)CCc3ccc(O[C@@H]4O[C@H](CO)[C@H](O)[C@H](O)[C@H]4O)cc3)cn2)nc1 [Compound I2]
Fulfilled

Does the reported N (stoichiometry) of the following compound sit strictly below 0.5? Cc1ccc(NC(=O)CCc2ccc(O[C@@H]3O[C@H](CO)[C@H](O)[C@H](O)[C@H]3O)cc2)cc1S(=O)(=O)O [Compound K2]
Not fulfilled

Does the reported N (stoichiometry) of the following compound sit strictly below 0.5? O=C(CCc1ccc(O[C@@H]2O[C@H](CO)[C@H](O)[C@H](O)[C@H]2O)cc1)Nc1ccc(CCc2ccc(NC(=O)CCc3ccc(O[C@@H]4O[C@H](CO)[C@H](O)[C@H](O)[C@H]4O)cc3)cc2S(=O)(=O)O)c(S(=O)(=O)O)c1 [Compound L2]
Not fulfilled

Does the reported N (stoichiometry) of the following compound sit strictly below 0.5? O=C(CCc1ccc(O[C@@H]2O[C@H](CO)[C@H](O)[C@H](O)[C@H]2O)cc1)Nc1ccc(OCCCCOc2ccc(NC(=O)CCc3ccc(O[C@@H]4O[C@H](CO)[C@H](O)[C@H](O)[C@H]4O)cc3)cn2)nc1 [Compound J2]
Not fulfilled

----------
Subject Of Test: LecA (Pseudomonas aeruginosa, UniProt Q05097)
Construct: made in house
Method: Isothermal titration microcalorimetry (ITC) with LecA
Format: binding
Condition Notes: ITC average ± s.d., 25 °C
Experimental Readout: ΔS
Returns: string containing the numeric result and its unit.

Fill in the blank: the reported ΔS of O=C(CCc1ccc(O[C@@H]2O[C@H](CO)[C@H](O)[C@H](O)[C@H]2O)cc1)Nc1ccc(OCCCCOc2ccc(NC(=O)CCc3ccc(O[C@@H]4O[C@H](CO)[C@H](O)[C@H](O)[C@H]4O)cc3)cn2)nc1 [Compound J2] is ____.
-12.6 ± 1.8 cal/mol/K

Fill in the blank: the reported ΔS of COc1ccc(NC(=O)CCc2ccc(O[C@@H]3O[C@H](CO)[C@H](O)[C@H](O)[C@H]3O)cc2)cn1 [Compound G2] is ____.
-12.8 ± 0.6 cal/mol/K

Fill in the blank: the reported ΔS of Cc1ccc(NC(=O)CCc2ccc(O[C@@H]3O[C@H](CO)[C@H](O)[C@H](O)[C@H]3O)cc2)cc1S(=O)(=O)O [Compound K2] is ____.
-10.7 ± 0.6 cal/mol/K

Fill in the blank: the reported ΔS of O=C(CCc1ccc(O[C@@H]2O[C@H](CO)[C@H](O)[C@H](O)[C@H]2O)cc1)Nc1ccc(CCc2ccc(NC(=O)CCc3ccc(O[C@@H]4O[C@H](CO)[C@H](O)[C@H](O)[C@H]4O)cc3)cc2S(=O)(=O)O)c(S(=O)(=O)O)c1 [Compound L2] is ____.
-31.6 ± 4.4 cal/mol/K

Fill in the blank: the reported ΔS of O=C(CCc1ccc(O[C@@H]2O[C@H](CO)[C@H](O)[C@H](O)[C@H]2O)cc1)Nc1ccc(OCCCOc2ccc(NC(=O)CCc3ccc(O[C@@H]4O[C@H](CO)[C@H](O)[C@H](O)[C@H]4O)cc3)cn2)nc1 [Compound I2] is ____.
-45.9 ± 4.5 cal/mol/K

----------
Subject Of Test: LecA (Pseudomonas aeruginosa)
Construct: made in house
Method: Isothermal titration microcalorimetry (ITC) with LecA
Assay type: binding
Condition Notes: ITC average ± s.d., 25 °C
Experimental Readout: -TΔS (supplement) (kcal/mol)
# value in kcal/mol; strip the unit string

O=C(CCc1ccc(O[C@@H]2O[C@H](CO)[C@H](O)[C@H](O)[C@H]2O)cc1)Nc1ccc(OCCCOc2ccc(NC(=O)CCc3ccc(O[C@@H]4O[C@H](CO)[C@H](O)[C@H](O)[C@H]4O)cc3)cn2)nc1 = 13.7

Please find the next compound below.
Fill in the blank: the reported -TΔS (supplement) of `O=C(CCc1ccc(O[C@@H]2O[C@H](CO)[C@H](O)[C@H](O)[C@H]2O)cc1)Nc1ccc(OCCCCOc2ccc(NC(=O)CCc3ccc(O[C@@H]4O[C@H](CO)[C@H](O)[C@H](O)[C@H]4O)cc3)cn2)nc1` is ____.
3.8
